Origin of the recorded values: patent US6602889B1

# Lookup of reported IC50 keyed by entry
# tested on: dopamine D2 receptors (Rattus norvegicus)
# Construct: Male Wistar (Mol:Wistar) rats (125-250 g) are sacrificed and striatal tissue is dissected and weighed; from tissue; host or cells: rat corpus striatum membranes (male Wistar rats)
# Sequence (P61169 whole entry): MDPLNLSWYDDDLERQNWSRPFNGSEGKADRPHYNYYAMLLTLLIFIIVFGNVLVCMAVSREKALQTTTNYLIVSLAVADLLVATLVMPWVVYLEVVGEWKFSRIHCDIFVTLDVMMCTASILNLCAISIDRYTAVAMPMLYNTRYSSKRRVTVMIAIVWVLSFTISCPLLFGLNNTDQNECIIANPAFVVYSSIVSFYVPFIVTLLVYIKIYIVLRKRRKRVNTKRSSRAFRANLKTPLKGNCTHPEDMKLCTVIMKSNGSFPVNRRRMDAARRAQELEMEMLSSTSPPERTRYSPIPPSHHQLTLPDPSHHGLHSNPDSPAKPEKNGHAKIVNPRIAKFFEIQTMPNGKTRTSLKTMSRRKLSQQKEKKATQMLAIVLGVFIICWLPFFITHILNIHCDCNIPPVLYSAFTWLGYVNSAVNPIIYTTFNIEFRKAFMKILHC
# procedure summary: Inhibition of 3H-spiperone binding to dopamine D2 receptors in rat corpus striatum in vitro
# conditions: 3H-spiperone 0.5 nM, membranes from rat corpus striatum; read-out: IC50 values in nM, D2

Recorded IC50, per entry:
{"molecule": "Cn1nnc(-c2ccc3c(c2)c(C2=CCN(CCN4CCNC4=O)CC2)cn3-c2ccncc2)n1 [Compound 5a]", "tested on": "dopamine D2 receptors (Rattus norvegicus)", "IC50": "> 100 nM"}
{"molecule": "CCn1ncc(-c2ccc3c(c2)c(C2=CCN(CCN4CCNC4=O)CC2)cn3-c2ccc(F)cc2)n1 [Compound 22i]", "tested on": "dopamine D2 receptors (Rattus norvegicus)", "IC50": "51 nM"}
{"molecule": "CN1CCC(c2cn(-c3ccc(F)cc3)c3ccc(-c4nnn(C)n4)cc23)CC1 [Compound 23b]", "tested on": "dopamine D2 receptors (Rattus norvegicus)", "IC50": "> 100 nM"}

Then this molecule:
Which IC50 is reported for this molecule? CCn1nnc(-c2ccc3c(c2)c(C2CCN(CCN4CCNC4=O)CC2)cn3-c2ccc(F)cc2)n1.Cl.Cl [Compound 23a, dihydrochloride] > 100 nM

###

# tested on: serotonin S2 (5-HT2A) receptors (Rattus norvegicus)
# Construct: Male Wistar (Mol:Wist) rats (125-250 g) are sacrificed and cortical tissue is dissected and weighed; from tissue; host or cells: rat cortex membranes (male Wistar rats)
# Sequence (P14842 whole entry): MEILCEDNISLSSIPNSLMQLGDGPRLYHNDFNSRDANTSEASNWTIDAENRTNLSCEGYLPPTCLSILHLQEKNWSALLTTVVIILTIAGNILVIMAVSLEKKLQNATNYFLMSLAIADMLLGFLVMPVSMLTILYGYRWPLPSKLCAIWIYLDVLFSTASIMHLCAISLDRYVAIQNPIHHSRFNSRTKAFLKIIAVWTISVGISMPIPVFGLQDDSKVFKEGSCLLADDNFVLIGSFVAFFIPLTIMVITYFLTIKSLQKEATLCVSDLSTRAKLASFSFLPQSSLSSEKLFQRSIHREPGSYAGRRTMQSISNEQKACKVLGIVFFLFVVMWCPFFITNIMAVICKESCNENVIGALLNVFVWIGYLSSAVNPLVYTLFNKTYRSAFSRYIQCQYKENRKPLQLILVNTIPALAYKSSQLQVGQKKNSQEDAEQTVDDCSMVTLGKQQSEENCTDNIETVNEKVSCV
# procedure summary: Inhibition of 3H-ketanserin binding to serotonin S2 (5-HT2A) receptors in rat cortex in vitro
# conditions: 3H-ketanserin 0.5 nM, membranes from rat cortex; read-out: IC50 values in nM, 5-HT2A
Where a name gives a salt, the structure may show the parent alone.
property: IC50

Which IC50 is reported for this compound? Cn1ncc(-c2ccc3c(c2)c(C2=CCN(CCN4CCNC4=O)CC2)cn3-c2ccc(F)cc2)n1 [Compound 22g] 94 nM

Which IC50 is reported for this compound? Cn1nnc(-c2ccc3c(c2)c(C2=CCN(CCc4nnnn4C)CC2)cn3-c2ccc(F)cc2)n1 [Compound 17b, fumarate] 450 nM

Which IC50 is reported for this compound? Cn1nnnc1Cc1ccc2c(c1)c(C1=CCN(CCN3CCNC3=O)CC1)cn2-c1ccc(F)cc1 [Compound 22d] 18 nM

###

Structures can show the parent of a compound that is named as a salt.
# Lookup of reported melting point keyed by entry

{"compound": "Cn1nnnc1Cc1ccc2c(c1)c(C1CCN(CCN3CCNC3=O)CC1)cn2-c1ccc(F)cc1 (as salt: fumarate) [Compound 23c]", "melting point": "169 to 171 °C"}

Which melting point is reported for this compound? Cn1nnc(-c2ccc3c(c2)c(C2CCN(CCN4CCNC4=O)CC2)cn3-c2ccncc2)n1 204 to 206 °C

Which melting point is reported for this compound? Cn1ncc(-c2ccc3c(c2)c(C2=CCN(CCN4CCNC4=O)CC2)cn3-c2ccc(F)cc2)n1 [Compound 22g] 175 to 177 °C

Which melting point is reported for this compound? Cn1nnc(Cc2ccc3c(c2)c(C2=CCN(CCN4CCNC4=O)CC2)cn3-c2ccc(F)cc2)n1 [Compound 22e] 129 to 131 °C

Which melting point is reported for this compound? CN1CC=C(c2cn(-c3ccc(F)cc3)c3ccc(-c4nnn(C)n4)cc23)CC1 [Compound 21b] 142 to 144 °C

Which melting point is reported for this compound? Cn1nnc(-c2ccc3c(c2)c(C2=CCN(CCN4CCNC4=O)CC2)cn3-c2ccncc2)n1 177 to 178 °C

Which melting point is reported for this compound? CCn1nnc(-c2ccc3c(c2)c(C2CCN(CCN4CCNC4=O)CC2)cn3-c2ccc(F)cc2)n1.Cl.Cl [Compound 23a] 172 to 174 °C
